Molecular target: T1, YFP-tagged human APJ receptor (human, UniProt P35414 1-380)
T1 construct: whole, on cells; also called hAPJ; APJ WT; not shown: YFP tag
T1 sequence (looked up): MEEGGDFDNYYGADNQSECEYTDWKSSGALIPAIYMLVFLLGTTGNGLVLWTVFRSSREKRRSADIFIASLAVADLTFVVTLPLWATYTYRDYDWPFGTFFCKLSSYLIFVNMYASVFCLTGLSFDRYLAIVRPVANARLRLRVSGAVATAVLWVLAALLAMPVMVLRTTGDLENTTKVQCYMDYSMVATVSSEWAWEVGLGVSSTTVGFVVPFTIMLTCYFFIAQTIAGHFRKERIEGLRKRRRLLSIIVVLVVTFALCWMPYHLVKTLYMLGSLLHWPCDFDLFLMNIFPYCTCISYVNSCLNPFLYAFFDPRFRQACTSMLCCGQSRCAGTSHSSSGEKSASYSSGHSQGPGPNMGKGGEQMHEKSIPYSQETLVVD
Assay: competitive radioligand binding, HEK293-hAPJ membranes
Bridge positions count the residues as written; N and C are the ends. Square brackets hold non-standard residues; d marks the D form. Ends that are not written are not given here. d1Nal = N[C@H](Cc1cccc2ccccc12)C(=O)O; AllylGly = C=CC[C@H](N)C(=O)O
Readout name: pKi
Schema: pKi number; meaning minus log10 of the concentration expressed in molar units.

Ask: Specify reported pKi for the binder shown: H-[AllylGly]RLS[AllylGly]KGP[d1Nal] (staple 1-5) [Compound 42 (KT04-43)]
Result: 9.22
